Data origin: patent US9593305B2

test system: H1 human embryonic stem cells; assay: Secondary assay: panel of compounds with growth factor combinations and muscimol, no activin A (Example 6, Table 5); assay type: cell-based; conditions: no AA (with Wnt3a); EGF + FGF4 + PDGF-AB + Muscimol
ASSAY_ENDPOINT: Cell Number, % of positive control (%)
Numbers only; they are read as %.

Worked examples, 2 compounds total:
*Q* Can you share its Cell Number, % of positive control? I mean this compound: O=C1NCCCc2cncc(c2)-c2ncnc(n2)Nc2cc(Cl)cc(c2)CN2CCCC1C2 (stereo not shown)
*A* 75.67

*Q* And what about the compound "O=C1NCCCc2cncc(c2)-c2ncnc(n2)Nc2cccc(c2)CN2CCC1CC2" ?
*A* 155.23

Below: the item to evaluate.
*Q* Recorded Cell Number, % of positive control of "CCN1CC(=O)NCCCc2cncc(c2)-c2ncnc(n2)Nc2cc(Cl)cc(c2)C1" , please.
*A* 171.62

====

Each entry below carries its recorded Cell Number: % of positive control.
tested on: H1 human embryonic stem cells; experiment: Secondary screening with EGF/FGF4 in the absence of activin A (Example 4); assay type: cell-based; details: 2.5 μM compound + 50 ng/ml EGF + 50 ng/ml FGF4, Wnt3a, no activin A, four days

Past entries and their recorded results:
*Q* Can you share its Cell Number: % of positive control? I mean this compound: O=C1NCCCc2cncc(c2)-c2ncnc(n2)Nc2cccc(c2)CN2CCCC1C2 (stereo not drawn) [Compound 17]
*A* 114.51 % of positive control

*Q* Lookup O=C1NCCCc2cncc(c2)-c2ncnc(n2)Nc2cc(Cl)cc(c2)CN2CCCC1C2 (stereo not drawn) [Compound 37]
*A* 83.32 % of positive control

*Q* Further, for CCN1CCCc2cccc(c2)-c2ncnc(n2)Nc2cccc(c2)CCNC(=O)C1 [Compound 29] ?
*A* 107.97 % of positive control

*Q* Now consider CN1CCC(=O)NCCCNc2ncccc2-c2ncnc(n2)Nc2cccc(c2)C1 [Compound 39] and answer again.
*A* 91.28 % of positive control

*Q* Continue with O=C1NCCCc2cncc(c2)-c2ncnc(n2)Nc2cccc(c2)CN2CCC1CC2 [Compound 22]
*A* 97.91 % of positive control

Attention now turns to another entry.
*Q* Could you tell me which Cell Number: % of positive control is on file for O=C1CCN2CCN(CC2)Cc2cc(Cl)cc(c2)Nc2ncnc(n2)-c2cncc(c2)CCCN1 [Compound 34] ?
*A* 100.87 % of positive control

====

test system: H1 human embryonic stem cells; assay: Screen of CDK, GSK3 and TRK inhibitors with or without GDF-8, SOX17 and cell number (Example 20, Table 17); type: cell-based; details: Plate 1; compound alone, No GDF8
Overview of reported Sox17 Expression, Average Total Intensity across a group of molecules:
// return just the number, without any unit appended

Study these solved cases before continuing.
*Q* So what does the record say about Sox17 Expression, Average Total Intensity for "CN1CCCc2cccc(c2)-c2nnc([nH]2)Nc2cccc(c2)CN2CCN(CC2)C(=O)C1" ?
*A* −2.1E+05

*Q* Cool, now "CN(C)CCNC(=O)c1ccc(-c2cnc3ccc(NCc4cccc(Cl)c4)nn23)cc1"
*A* −7.1E+05

*Q* // next record "COc1ccc(Nc2cc(Nc3cc(Cl)ccc3O)ncn2)cc1CCl"
*A* −6.6E+05

Others:
*Q* Look at this molecule and give its reported Sox17 Expression, Average Total Intensity. "O=C1NCc2cccc(c2)-c2ccnc(n2)Nc2ccc(C(=O)N3CCOCC3)c(c2)CN2CCC[C@@H]12"
*A* −1.1E+06

*Q* Proceed to "COCCCNS(=O)(=O)c1ccc(Nc2ncc3cnn(C4CCCCC4)c3n2)cc1"
*A* −4.2E+04

*Q* Try this molecule too: "N#Cc1cnc2nc1Nc1cccc(c1)OCCNC(=O)c1cccc(c1)N2"
*A* 5.9E+04

*Q* Next record, please: "O=C(O)c1cc(Nc2ncc3nnn(-c4ccccc4)c3n2)ccc1F"
*A* −1.4E+06

*Q* And what about the molecule "COCCCNCc1ccc(Nc2nccc(-c3c[nH]c4ncccc34)n2)c(OC)c1" ?
*A* −2.3E+05

*Q* Repeat with "O=C1COc2cccc(c2)Nc2nccc(n2)Nc2cccc(c2)OCCCN1"
*A* −2.4E+05

====

As shown below, each of these compounds has a reported Cell Number, % of positive control value.
tested on: H1 human embryonic stem cells; test: Screen of CDK, GSK3 and TRK inhibitors with or without GDF-8, SOX17 and cell number (Example 20, Table 17); assay type: cell-based; settings: Plate 1; compound alone, No GDF8; positive control = Activin A/Wnt3a

Use the examples below as a reference point.
*Q* Item under review: CN1CCC(NC(=O)c2ccc(Nc3nccc(N4CCN(C)c5ccccc54)n3)cc2)CC1 [Compound 11] . Reported Cell Number, % of positive control?
*A* 3.9 % of positive control

*Q* N#Cc1cnc2nc1Nc1cccc(c1)OCCNC(=O)c1cccc(c1)N2 [Compound 41] , same question.
*A* 69.0 % of positive control

*Q* Could you do the same for O=C(O)c1ccc(Nc2ncc3nnn(-c4cccc(F)c4)c3n2)cc1 [Compound 6] , please?
*A* 102.4 % of positive control

*Q* Try this compound too: COc1ccc2cc1OCCCC(=O)N(C)CC1CN(Cc3c[nH]c4ncnc(c34)N2)C1 [Compound 45]
*A* 61.2 % of positive control

*Q* Quick one: COc1ccc(Nc2cc(Nc3cc(Cl)ccc3O)ncn2)cc1CCl [Compound 10]
*A* 48.4 % of positive control

New cases:
*Q* Consider the compound shown here: COCCCNS(=O)(=O)c1ccc(Nc2ncc3cnn(C4CCCCC4)c3n2)cc1 [Compound 9] What is its recorded Cell Number, % of positive control?
*A* 49.4 % of positive control

*Q* Next up: O=C(O)c1cc(Nc2ncc3nnn(-c4ccccc4)c3n2)ccc1F [Compound 7]
*A* 0.0 % of positive control

*Q* Request: COCCCNCc1ccc(Nc2nccc(-c3c[nH]c4ncccc34)n2)c(OC)c1 [Compound 12]
*A* 90.7 % of positive control

*Q* Okay, and CN(C)CCNC(=O)c1ccc(-c2cnc3ccc(NCc4cccc(Cl)c4)nn23)cc1 [Compound 57] ?
*A* 8.4 % of positive control

*Q* How about O=C1COc2cccc(c2)Nc2nccc(n2)Nc2cccc(c2)OCCCN1 [Compound 42] ?
*A* 60.1 % of positive control

*Q* Entry CN1CCCc2cccc(c2)-c2nnc([nH]2)Nc2cccc(c2)CN2CCN(CC2)C(=O)C1 [Compound 43] please
*A* 59.5 % of positive control

*Q* Next compound up: Nc1nccc(-c2cccc(Nc3ncc4nnn(-c5cccc(CNC(=O)C6CC6)c5)c4n3)c2)n1 [Compound 8]
*A* 91.4 % of positive control

*Q* Next compound up: O=C1NCc2cccc(c2)-c2ccnc(n2)Nc2ccc(C(=O)N3CCOCC3)c(c2)CN2CCC[C@@H]12 [Compound 44]
*A* 0.1 % of positive control

====

test system: H1 human embryonic stem cells; test: Analog screening with GDF-8 and growth factor/agonist pool (Example 8, Tables 7 and 8); assay type: cell-based; conditions: Plate 1; compound + EGF, FGF, PDGF-A, VEGF, PDGF-D, muscimol, GDF8; positive control Activin A/Wnt3a
ASSAY_ENDPOINT: Cell Number, % of positive control

*Q* I'd like to know its Cell Number, % of positive control. The compound in question is O=C1NCCCc2cc(ccc2F)-c2ncnc(n2)Nc2cc(Cl)cc(c2)CN2CCCC1C2 (stereo not shown) [Compound 26]
*A* 55.4 % of positive control

*Q* Same question for CCN1CCCc2cccc(c2)-c2ncnc(n2)Nc2ccccc2CNC(=O)C1 [Compound 32] please.
*A* 60.2 % of positive control

*Q* // same read-out, input: CN1CCC(=O)NCCCNc2cccc(c2)-c2ncnc(n2)Nc2cccc(c2)C1 [Compound 21]
*A* 94.4 % of positive control

*Q* Also need CN1CCCC(=O)NCCCc2cncc(c2)-c2ncnc(n2)Nc2cccc(c2)C1 [Compound 20] , thanks.
*A* 70.4 % of positive control

*Q* How about this compound: CCN1CC(=O)NCCCc2cc(ccn2)-c2ncnc(n2)Nc2cc(Cl)cc(c2)C1 [Compound 14]
*A* 69.8 % of positive control

*Q* Also need O=C1NCCCc2cncc(c2)-c2ncnc(n2)Nc2cc(Cl)cc(c2)CN2CCC[C@@H]12 [Compound 36] , thanks.
*A* 59.5 % of positive control

Next:
*Q* Can you look up the measured Cell Number, % of positive control of CCN1CC(=O)NCCCc2cccc(c2)-c2ncnc(n2)Nc2cccc(c2)C1 [Compound 15] for me?
*A* 63.1 % of positive control

====

test system: H1 human embryonic stem cells; assay: Screen of CDK, GSK3 and TRK inhibitors with or without GDF-8, SOX17 and cell number (Example 20, Table 17); assay type: cell-based; conditions: Plate 1; compound alone, No GDF8
ASSAY_ENDPOINT: Cell Number, Average Total Cell Number
Just the number, please, no unit after it.

See these solved cases before continuing.
*Q* Given "O=C1NCc2cccc(c2)-c2ccnc(n2)Nc2ccc(C(=O)N3CCOCC3)c(c2)CN2CCC[C@@H]12" , state its recorded Cell Number, Average Total Cell Number.
*A* 14

*Q* Same read-out for "O=C(O)c1cc(Nc2ncc3nnn(-c4ccccc4)c3n2)ccc1F" ?
*A* 3

*Q* Could you do the same for "CN1CCCc2cccc(c2)-c2nnc([nH]2)Nc2cccc(c2)CN2CCN(CC2)C(=O)C1" , please?
*A* 8610

*Q* Let us now turn to "COc1ccc2cc1OCCCC(=O)N(C)CC1CN(Cc3c[nH]c4ncnc(c34)N2)C1"
*A* 8857

*Q* Next record, please: "COc1ccc(Nc2cc(Nc3cc(Cl)ccc3O)ncn2)cc1CCl"
*A* 7011

***
*Q* Entry "O=C(O)c1ccc(Nc2ncc3nnn(-c4cccc(F)c4)c3n2)cc1" : reported Cell Number, Average Total Cell Number = ?
*A* 14827

*Q* Same thing, different compound: "COCCCNS(=O)(=O)c1ccc(Nc2ncc3cnn(C4CCCCC4)c3n2)cc1"
*A* 7156

*Q* Next compound up: "CN1CCC(NC(=O)c2ccc(Nc3nccc(N4CCN(C)c5ccccc54)n3)cc2)CC1"
*A* 565

*Q* What do you get for "CN(C)CCNC(=O)c1ccc(-c2cnc3ccc(NCc4cccc(Cl)c4)nn23)cc1" ?
*A* 1222
